# inhibition annotations
Test system: 5-hydroxytryptamine receptor 2C (Homo sapiens) (UniProt P28335)
Sequence (P28335 whole entry): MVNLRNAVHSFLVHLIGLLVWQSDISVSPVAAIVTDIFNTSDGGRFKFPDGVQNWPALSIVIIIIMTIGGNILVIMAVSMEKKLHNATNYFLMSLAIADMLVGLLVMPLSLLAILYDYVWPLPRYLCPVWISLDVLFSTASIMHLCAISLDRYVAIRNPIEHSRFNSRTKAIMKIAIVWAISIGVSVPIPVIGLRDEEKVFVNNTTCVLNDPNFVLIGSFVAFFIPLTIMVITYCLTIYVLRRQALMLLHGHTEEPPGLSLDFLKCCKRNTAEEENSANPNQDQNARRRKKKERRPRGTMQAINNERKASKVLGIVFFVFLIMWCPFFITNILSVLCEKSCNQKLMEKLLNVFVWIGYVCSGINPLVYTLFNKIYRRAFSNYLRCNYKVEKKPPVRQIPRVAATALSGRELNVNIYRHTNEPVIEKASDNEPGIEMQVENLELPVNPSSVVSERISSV
Measurement description: Displacement of [3H]-mesulergine from human cloned 5HT2C receptor expressed in HEK293 cells at 1 uM by scintillation counting analysis
Format: cell-based
The response must be a number in % with no trailing unit.

Solved entries (count: 2):
>>> numeric_result("O=C1NC2(CCCc3ccccc32)C(=O)N1CCCCN1CCN(c2cccc(Cl)c2)CC1 (centres undefined)")
61
>>> numeric_result("O=C1NC2(CCc3ccccc32)C(=O)N1CCCCN1CCN(c2cccc(Cl)c2)CC1 (centres undefined)")
61

Enquiry: Using the record for COc1ccccc1N1CCN(CCCCN2C(=O)NC3(CCCc4ccccc43)C2=O)CC1 (centres undefined) , report its inhibition.
Return: 24

Enquiry: And COc1ccccc1N1CCN(CCCCN2C(=O)NC3(CCc4ccccc43)C2=O)CC1 (centres undefined) ?
Return: 21

----------
Test system: D(4) dopamine receptor (Homo sapiens)
Measurement description: Displacement of [3H]methylspiperione from human D4 receptor expressed in CHO cells at 1 uM by scintillation counting analysis
Type: cell-based
Quantity measured: inhibition (%)
Provide only the numeric value, understood in %.

Please review the entries below; each comes with its answer.
>>> numeric_result("COc1ccccc1N1CCN(CCCCN2C(=O)NC3(CCc4ccccc43)C2=O)CC1 (centres undefined)")
95
>>> numeric_result("COc1ccccc1N1CCN(CCCCN2C(=O)NC3(CCCc4ccccc43)C2=O)CC1 (centres undefined)")
98
>>> numeric_result("O=C1NC2(CCc3ccccc32)C(=O)N1CCCCN1CCN(c2cccc(Cl)c2)CC1 (centres undefined)")
90

Could you now look at the following compound, please?
Enquiry: Record request: inhibition value, item O=C1NC2(CCCc3ccccc32)C(=O)N1CCCCN1CCN(c2cccc(Cl)c2)CC1 (centres undefined)
Return: 93

----------
Test system: 5-hydroxytryptamine receptor 6 (Homo sapiens) (UniProt P50406)
Sequence (P50406 whole entry): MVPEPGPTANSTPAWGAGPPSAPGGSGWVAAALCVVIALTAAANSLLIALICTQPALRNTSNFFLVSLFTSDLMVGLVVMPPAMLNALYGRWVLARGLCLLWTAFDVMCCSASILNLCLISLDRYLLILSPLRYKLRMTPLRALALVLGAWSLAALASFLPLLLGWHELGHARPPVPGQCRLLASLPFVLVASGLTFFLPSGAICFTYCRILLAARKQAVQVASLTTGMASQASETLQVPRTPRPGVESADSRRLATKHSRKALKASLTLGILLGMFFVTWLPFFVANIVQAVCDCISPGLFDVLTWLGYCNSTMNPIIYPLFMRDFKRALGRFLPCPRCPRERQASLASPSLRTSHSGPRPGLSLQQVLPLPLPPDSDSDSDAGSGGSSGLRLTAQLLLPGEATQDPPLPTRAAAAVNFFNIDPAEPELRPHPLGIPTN
Measurement description: Displacement of [3H]LSD from human 5HT6 receptor expressed in CHO cells at 1 uM by scintillation counting analysis
Format: cell-based
Quantity measured: inhibition (%)
// units = %; emit number, no label

The following compounds have reported results that may help.
>>> numeric_result("O=C1NC2(CCc3ccccc32)C(=O)N1CCCCN1CCN(c2cccc(Cl)c2)CC1 (centres undefined)")
23
>>> numeric_result("COc1ccccc1N1CCN(CCCCN2C(=O)NC3(CCCc4ccccc43)C2=O)CC1 (centres undefined)")
29
>>> numeric_result("COc1ccccc1N1CCN(CCCCN2C(=O)NC3(CCc4ccccc43)C2=O)CC1 (centres undefined)")
3

From here, focus on the item given below.
Enquiry: # get_value(readout= inhibition, system= 5-hydroxytryptamine receptor 6 (Homo sapiens) (UniProt P50406)) for O=C1NC2(CCCc3ccccc32)C(=O)N1CCCCN1CCN(c2cccc(Cl)c2)CC1 (centres undefined)
Return: 37

----------
Test system: D(2) dopamine receptor (Rattus norvegicus)
Sequence (P61169 whole entry): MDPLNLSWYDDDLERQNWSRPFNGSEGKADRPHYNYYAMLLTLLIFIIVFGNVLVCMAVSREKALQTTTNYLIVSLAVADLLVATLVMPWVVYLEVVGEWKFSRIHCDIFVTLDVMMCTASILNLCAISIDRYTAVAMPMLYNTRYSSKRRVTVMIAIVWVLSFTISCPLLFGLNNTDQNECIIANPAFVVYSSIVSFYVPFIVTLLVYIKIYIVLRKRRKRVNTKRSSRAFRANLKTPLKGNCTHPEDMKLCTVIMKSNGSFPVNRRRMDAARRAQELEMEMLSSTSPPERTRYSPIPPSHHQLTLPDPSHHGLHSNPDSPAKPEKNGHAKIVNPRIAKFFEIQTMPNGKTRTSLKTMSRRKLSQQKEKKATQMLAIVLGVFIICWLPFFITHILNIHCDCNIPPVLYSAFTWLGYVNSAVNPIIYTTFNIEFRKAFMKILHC
Measurement description: Displacement of [3H]spiperone from D2 receptor in rat striatum by liquid scintillation counting analysis
Listed here: items and their measured Ki.

>>> result("O=C1NC2(CCC(c3ccccc3)CC2)C(=O)N1CCCCN1CCN(c2cccc(Cl)c2)CC1 (stereo not given)")
"> 10000 nM"
>>> result("O=C1NC2(CCCc3ccccc32)C(=O)N1CCCCN1CCN(c2cccc(C(F)(F)F)c2)CC1 (stereo not given)")
"608 nM"
>>> result("O=C1NC2(CCCc3ccccc32)C(=O)N1CCCCN1CCN(c2ccccc2)CC1 (stereo not given)")
"743 nM"
>>> result("O=C1NC2(CCC(c3ccccc3)CC2)C(=O)N1CCCCN1CCN(c2cccc(C(F)(F)F)c2)CC1 (stereo not given)")
"> 10000 nM"
>>> result("COc1ccccc1N1CCN(CCCCN2C(=O)NC3(CCCc4ccccc43)C2=O)CC1 (stereo not given)")
"59 nM"
>>> result("COc1ccccc1N1CCN(CCCCN2C(=O)NC3(CCc4ccccc43)C2=O)CC1 (stereo not given)")
"104 nM"
>>> result("O=C1NC2(CCCc3ccccc32)C(=O)N1CCCCN1CCN(c2cccc(Cl)c2)CC1 (stereo not given)")
"1100 nM"
>>> result("O=C1NC2(CCc3ccccc32)C(=O)N1CCCCN1CCN(c2cccc(C(F)(F)F)c2)CC1 (stereo not given)")
"412 nM"

Enquiry: What does the record list as Ki for COc1ccccc1N1CCN(CCCCN2C(=O)NC3(CCC(c4ccccc4)CC3)C2=O)CC1 (stereo not given) ?
Return: 79 nM

Enquiry: Consider next the compound O=C1NC2(CCc3ccccc32)C(=O)N1CCCCN1CCN(c2cccc(Cl)c2)CC1 (stereo not given) in the same way.
Return: 539 nM

----------
Test system: Adrenergic receptor alpha-1 (Homo sapiens) (UniProt P35348+P25100+P35368)
Measurement description: Displacement of [3H]prazosin from human alpha1-adrenergic receptor expressed in CHO cells at 1 uM by scintillation counting analysis
Assay type: cell-based
Quantity measured: inhibition (%)
Dear colleague, please return just the value in %, with no unit written.

Known inhibition results, listed for orientation:
>>> numeric_result("O=C1NC2(CCCc3ccccc32)C(=O)N1CCCCN1CCN(c2cccc(Cl)c2)CC1 (centres undefined)")
94
>>> numeric_result("O=C1NC2(CCc3ccccc32)C(=O)N1CCCCN1CCN(c2cccc(Cl)c2)CC1 (centres undefined)")
96
>>> numeric_result("COc1ccccc1N1CCN(CCCCN2C(=O)NC3(CCCc4ccccc43)C2=O)CC1 (centres undefined)")
99

Next up:
Enquiry: Which inhibition value is on record for COc1ccccc1N1CCN(CCCCN2C(=O)NC3(CCc4ccccc43)C2=O)CC1 (centres undefined) ?
Return: 98

----------
Test system: D(2) dopamine receptor (Homo sapiens) (UniProt P14416)
Sequence (P14416 whole entry): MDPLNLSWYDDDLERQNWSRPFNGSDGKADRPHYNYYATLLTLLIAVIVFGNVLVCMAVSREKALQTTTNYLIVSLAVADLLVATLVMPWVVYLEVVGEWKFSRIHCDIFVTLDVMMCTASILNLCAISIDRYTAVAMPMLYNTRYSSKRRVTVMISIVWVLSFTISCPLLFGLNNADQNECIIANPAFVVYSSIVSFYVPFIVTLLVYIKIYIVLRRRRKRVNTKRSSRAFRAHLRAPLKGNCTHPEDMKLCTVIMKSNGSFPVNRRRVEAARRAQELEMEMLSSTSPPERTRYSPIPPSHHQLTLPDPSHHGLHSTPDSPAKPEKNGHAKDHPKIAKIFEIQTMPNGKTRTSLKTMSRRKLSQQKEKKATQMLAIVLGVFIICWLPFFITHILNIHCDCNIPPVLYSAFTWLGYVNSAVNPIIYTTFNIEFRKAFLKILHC
Measurement description: Displacement of [3H]methylspiperione from human D2 receptor expressed in CHO cells at 1 uM by scintillation counting analysis
Assay type: cell-based
Quantity measured: inhibition (%)
// units = %; emit number, no label

Some molecules with known inhibition results, for comparison:
>>> numeric_result("O=C1NC2(CCc3ccccc32)C(=O)N1CCCCN1CCN(c2cccc(Cl)c2)CC1 (centres undefined)")
75
>>> numeric_result("O=C1NC2(CCCc3ccccc32)C(=O)N1CCCCN1CCN(c2cccc(Cl)c2)CC1 (centres undefined)")
77
>>> numeric_result("COc1ccccc1N1CCN(CCCCN2C(=O)NC3(CCc4ccccc43)C2=O)CC1 (centres undefined)")
96

Please turn your attention to the following entry.
Enquiry: Fill in: inhibition of COc1ccccc1N1CCN(CCCCN2C(=O)NC3(CCCc4ccccc43)C2=O)CC1 (centres undefined) is ___
Return: 97

----------
As shown below, each of these compounds has a reported inhibition value.
Test system: Alpha-2C adrenergic receptor (Homo sapiens) (UniProt P18825)
Sequence (P18825 whole entry): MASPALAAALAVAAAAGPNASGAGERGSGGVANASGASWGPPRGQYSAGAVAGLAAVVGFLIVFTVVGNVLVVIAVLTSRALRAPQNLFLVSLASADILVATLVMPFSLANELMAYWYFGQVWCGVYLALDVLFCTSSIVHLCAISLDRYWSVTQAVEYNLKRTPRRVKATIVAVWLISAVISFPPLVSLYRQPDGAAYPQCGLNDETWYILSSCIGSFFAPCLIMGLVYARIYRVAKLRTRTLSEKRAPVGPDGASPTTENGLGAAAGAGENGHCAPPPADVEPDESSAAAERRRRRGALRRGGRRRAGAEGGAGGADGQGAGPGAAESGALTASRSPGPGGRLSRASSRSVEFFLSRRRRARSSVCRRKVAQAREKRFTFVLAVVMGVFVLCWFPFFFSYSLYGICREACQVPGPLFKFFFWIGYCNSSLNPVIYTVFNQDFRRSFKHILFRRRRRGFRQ
Measurement description: Displacement of [3H]RX821002 from human alpha2C adrenergic receptor expressed in CHO cells at 1 uM by scintillation counting analysis
Assay type: cell-based
Respond with the bare value in %.

>>> numeric_result("COc1ccccc1N1CCN(CCCCN2C(=O)NC3(CCc4ccccc43)C2=O)CC1 (centres undefined)")
101
>>> numeric_result("O=C1NC2(CCCc3ccccc32)C(=O)N1CCCCN1CCN(c2cccc(Cl)c2)CC1 (centres undefined)")
99
>>> numeric_result("O=C1NC2(CCc3ccccc32)C(=O)N1CCCCN1CCN(c2cccc(Cl)c2)CC1 (centres undefined)")
97

Lab note: next compound to report on.
Enquiry: Which measured inhibition value corresponds to COc1ccccc1N1CCN(CCCCN2C(=O)NC3(CCCc4ccccc43)C2=O)CC1 (centres undefined) ?
Return: 101

----------
Measured inhibition, listed per entry for reference.
Test system: 5-hydroxytryptamine receptor 2A (Homo sapiens) (UniProt P28223)
Sequence (P28223 whole entry): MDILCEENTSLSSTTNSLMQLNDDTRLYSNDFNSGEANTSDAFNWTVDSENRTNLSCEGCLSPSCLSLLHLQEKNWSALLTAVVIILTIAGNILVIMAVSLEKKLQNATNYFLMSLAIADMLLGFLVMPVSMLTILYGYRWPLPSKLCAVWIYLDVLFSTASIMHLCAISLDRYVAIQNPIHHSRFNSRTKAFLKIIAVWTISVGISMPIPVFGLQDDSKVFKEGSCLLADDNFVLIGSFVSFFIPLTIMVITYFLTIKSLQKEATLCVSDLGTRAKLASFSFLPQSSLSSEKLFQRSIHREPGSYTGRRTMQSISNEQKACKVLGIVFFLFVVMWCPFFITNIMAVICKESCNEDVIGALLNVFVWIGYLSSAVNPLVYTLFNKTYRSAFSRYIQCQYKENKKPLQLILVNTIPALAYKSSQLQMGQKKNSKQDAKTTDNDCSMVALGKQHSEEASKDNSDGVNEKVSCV
Measurement description: Displacement of [3H]ketanserin from human cloned 5HT2A receptor expressed in HEK293 cells at 1uM by scintillation counting analysis
Format: cell-based
Give just the numeric value; % need not be written.

See these solved cases before continuing.
>>> numeric_result("COc1ccccc1N1CCN(CCCCN2C(=O)NC3(CCCc4ccccc43)C2=O)CC1 (centres undefined)")
69
>>> numeric_result("O=C1NC2(CCc3ccccc32)C(=O)N1CCCCN1CCN(c2cccc(Cl)c2)CC1 (centres undefined)")
98
>>> numeric_result("O=C1NC2(CCCc3ccccc32)C(=O)N1CCCCN1CCN(c2cccc(Cl)c2)CC1 (centres undefined)")
95

Next compound, inhibition to be filled in.
Enquiry: What value of inhibition has been recorded for this entry: COc1ccccc1N1CCN(CCCCN2C(=O)NC3(CCc4ccccc43)C2=O)CC1 (centres undefined)
Return: 100

----------
Test system: D(3) dopamine receptor (Homo sapiens) (UniProt P35462)
Sequence (P35462 whole entry): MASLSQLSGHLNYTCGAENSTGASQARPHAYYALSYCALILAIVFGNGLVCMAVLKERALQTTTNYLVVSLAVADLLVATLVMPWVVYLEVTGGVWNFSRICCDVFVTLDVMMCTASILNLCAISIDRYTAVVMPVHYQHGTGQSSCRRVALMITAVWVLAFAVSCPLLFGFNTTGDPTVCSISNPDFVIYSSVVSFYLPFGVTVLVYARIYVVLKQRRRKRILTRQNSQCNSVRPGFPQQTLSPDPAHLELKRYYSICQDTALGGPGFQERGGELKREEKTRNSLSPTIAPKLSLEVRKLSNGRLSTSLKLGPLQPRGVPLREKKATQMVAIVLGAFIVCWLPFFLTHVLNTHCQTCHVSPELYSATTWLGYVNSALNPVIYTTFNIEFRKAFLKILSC
Measurement description: Displacement of [3H]methylspiperione from human D3 receptor expressed in CHO cells at 1 uM by scintillation counting analysis
Type: cell-based
The following molecules are listed with their measured inhibition values.
Answer with a number only, understood to be in %.

>>> numeric_result("O=C1NC2(CCCc3ccccc32)C(=O)N1CCCCN1CCN(c2cccc(Cl)c2)CC1 (centres undefined)")
93
>>> numeric_result("O=C1NC2(CCc3ccccc32)C(=O)N1CCCCN1CCN(c2cccc(Cl)c2)CC1 (centres undefined)")
97
>>> numeric_result("COc1ccccc1N1CCN(CCCCN2C(=O)NC3(CCCc4ccccc43)C2=O)CC1 (centres undefined)")
94

Here is the next item to consider.
Enquiry: Fill in the blank: the reported inhibition of COc1ccccc1N1CCN(CCCCN2C(=O)NC3(CCc4ccccc43)C2=O)CC1 (centres undefined) is ____.
Return: 96

Numbers sourced from ChEMBL document CHEMBL3588770.
